Source: paper PMC10970734

# target under test: Serotonin 5-HT1B (Homo sapiens, UniProt P28222)
# Sequence (P28222 whole entry): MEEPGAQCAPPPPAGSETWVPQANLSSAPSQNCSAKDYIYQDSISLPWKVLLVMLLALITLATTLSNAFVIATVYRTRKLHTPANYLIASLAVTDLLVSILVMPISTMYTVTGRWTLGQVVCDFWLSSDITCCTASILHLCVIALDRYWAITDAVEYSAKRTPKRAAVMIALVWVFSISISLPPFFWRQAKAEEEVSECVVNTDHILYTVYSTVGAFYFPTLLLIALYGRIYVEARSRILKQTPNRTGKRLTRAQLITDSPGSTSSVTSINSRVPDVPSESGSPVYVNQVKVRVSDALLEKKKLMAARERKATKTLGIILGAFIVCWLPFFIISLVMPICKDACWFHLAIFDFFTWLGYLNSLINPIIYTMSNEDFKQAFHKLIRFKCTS
readout: pIC50
# pIC50 is unitless: minus log10 of the molar concentration; print number only

# get_value(readout='pIC50', item= Cc1ccccc1-c1cc(N2CCN(C)CC2)ncc1C(=O)N(C)Cc1cc(C(F)(F)F)cc(C(F)(F)F)c1 ) 5.21

====

Sequence of the target: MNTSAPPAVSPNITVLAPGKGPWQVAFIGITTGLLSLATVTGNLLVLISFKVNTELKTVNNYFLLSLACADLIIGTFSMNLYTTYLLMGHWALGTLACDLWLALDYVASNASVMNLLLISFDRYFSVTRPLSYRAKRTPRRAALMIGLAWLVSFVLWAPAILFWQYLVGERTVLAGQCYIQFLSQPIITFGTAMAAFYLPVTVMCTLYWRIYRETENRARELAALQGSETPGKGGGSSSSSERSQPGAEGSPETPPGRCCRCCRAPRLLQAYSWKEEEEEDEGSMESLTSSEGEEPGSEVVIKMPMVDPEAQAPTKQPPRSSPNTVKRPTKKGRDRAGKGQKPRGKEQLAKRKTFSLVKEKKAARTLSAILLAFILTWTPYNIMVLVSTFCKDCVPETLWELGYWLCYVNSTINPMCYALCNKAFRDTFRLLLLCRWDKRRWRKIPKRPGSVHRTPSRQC
readout: pIC50
# log scale: pIC50 equals minus log10 of the concentration in mol/L

Which pIC50 reading was recorded for the compound Cc1ccccc1-c1cc(N2CCN(C)CC2)ncc1C(=O)N(C)Cc1cc(C(F)(F)F)cc(C(F)(F)F)c1 ? 5.48
